- System: HT22 cells
- testDescription: In vitro neurotoxicity without glutamate (MTS cell viability)
- Type: cell-based, mouse
- conditionContext: HT22 cells
- Method: The HT22 neuronal cell line is a subclone of HT4, derived from the mouse hippocampus (Morimoto and Koshland, 1990). […] HT22 cells were used. […] Cell viability was assessed by the ability of the viable cells to metabolize 3-(4,5-dimethylthiazol-2-yl)-5-(3-carboxymethoxyphenyl)-2(4-sulfophenyl)2-H-tetrazolium, inner salt (MTS), as described previously (Cory et al., 1991). […] Absorbance at 490 nm was subsequently measured by a SpectraMax 190 plate reader (Molecular Devices). […]
Binarize Safety Index TC50/PC50 at 100; below is TRUE, at or above is FALSE.

Below, 3 compounds whose answers are already recorded.
- compound: "CC1=C(C)C(=O)c2ccccc2C1=O [Compound 1c]"
  classification: "FALSE"
- compound: "O=C(Cc1ccccc1)NC1=CC(=O)c2ccccc2C1=O [Compound 3k]"
  classification: "TRUE"
- compound: "O=C(Cc1ccc(-c2ccccc2)cc1)NC1=CC(=O)c2ccccc2C1=O [Compound 3l]"
  classification: "TRUE"

Qu. Please indicate whether the reported Safety Index TC50/PC50 of O=C(NCc1ccccc1)NC1=CC(=O)c2ccccc2C1=O [Compound 4d] is strictly below 100.
Ans. FALSE

Qu. Try CCNC1=CC(=O)c2ccccc2C1=O [Compound 2b, 2-(ethylamino)naphthalene-1,4-dione] next.
Ans. FALSE

====

Collected Highest concentration tested for anti-seizure activity values appear next to each entry.
- System: zebrafish larvae
- testDescription: Zebrafish larval toxicity (NOEC, lethal dose)
- Assay type: in vivo
- conditionContext: 7 dpf zebrafish larvae; highest sub-lethal dose
Report as a plain number; the unit mM is understood.

- compound: "O=C(CCCCCCC(=O)Nc1ccccc1)NO [Suberoylanilide hydroxamic acid (SAHA), suberoylanilide hydroxamic acid]"
  unitOfMeasure: "mM"
  endpointValue: 0.015
- compound: "O=C1C=C(NCc2ccccc2)C(=O)c2ccccc21"
  unitOfMeasure: "mM"
  endpointValue: 0.010
- compound: "O=C1C=C(NCc2cccc(Cl)c2)C(=O)c2ccccc21"
  unitOfMeasure: "mM"
  endpointValue: 0.02
- compound: "CN1CCc2c(c3ccccc3n2Cc2ccc(C(=O)NO)cc2)C1"
  unitOfMeasure: "mM"
  endpointValue: 0.012
- compound: "CCCC(CCC)C(=O)NO [2-propylpentane hydroxamic acid (VPHA), 2-propylpentane hydroxamic acid]"
  unitOfMeasure: "mM"
  endpointValue: 0.05
- compound: "O=C(NO)C(c1ccccc1)c1ccccc1 [Diphenyl acetic hydroxamic acid (dPAHA), diphenyl acetic hydroxamic acid]"
  unitOfMeasure: "mM"
  endpointValue: 0.0075

Qu. Please look up its Highest concentration tested for anti-seizure activity: O=C(NC1=CC(=O)c2ccccc2C1=O)c1ccccc1
Ans. 0.003

====

- Test system: HT22 cells
- testDescription: In vitro neurotoxicity without glutamate (MTS cell viability)
- Assay type: cell-based, mouse
- conditionContext: HT22 cells without glutamate, 24 hrs, MTS; concentration producing 50% toxicity; read-out: Toxicity TC50
- Description: The HT22 neuronal cell line is a subclone of HT4, derived from the mouse hippocampus (Morimoto and Koshland, 1990). […] HT22 cells were used. […] Cell viability was assessed by the ability of the viable cells to metabolize 3-(4,5-dimethylthiazol-2-yl)-5-(3-carboxymethoxyphenyl)-2(4-sulfophenyl)2-H-tetrazolium, inner salt (MTS), as described previously (Cory et al., 1991). […] Absorbance at 490 nm was subsequently measured by a SpectraMax 190 plate reader (Molecular Devices). […]
Entries and their measured CC50 follow.
# output: bare number, implied unit µM

Qu. Quick one: CC50 for O=C1C=C(NCc2ccccn2)C(=O)c2ccccc21 [Compound 2o] ?
Ans. 50

Qu. Next: CC1=C(C)C(=O)c2ccccc2C1=O [Compound 1c]
Ans. 30

Qu. What do you get for C#CCNC1=CC(=O)c2ccccc2C1=O [Compound 2h] ?
Ans. 53

Qu. Query CCNC1=CC(=O)c2ccccc2C1=O [Compound 2b, 2-(ethylamino)naphthalene-1,4-dione] next
Ans. 81

Qu. Next compound: CCCNC1=CC(=O)c2ccccc2C1=O [Compound 2e, 2-(propylamino)naphthalene-1,4-dione]
Ans. 30
